Ref: patent US20260116991A1

Listed below: OD450 nm values for each entry.
target: monkey GPC3-His protein (monkey); assay: ELISA, monkey GPC3-His coated; antibody 66.66 nM
Reply: number alone, nothing else.

### Prompt Bench note: what OD450 nm did hAb003LH2L1 (antibody, human IgG1, V domains shown) VH: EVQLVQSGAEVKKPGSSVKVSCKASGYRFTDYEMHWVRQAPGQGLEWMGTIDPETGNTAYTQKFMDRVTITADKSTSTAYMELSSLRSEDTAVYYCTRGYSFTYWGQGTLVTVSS VL: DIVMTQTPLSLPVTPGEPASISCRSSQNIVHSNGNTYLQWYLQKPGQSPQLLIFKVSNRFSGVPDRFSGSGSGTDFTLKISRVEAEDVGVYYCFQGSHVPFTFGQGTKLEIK show?
### Response 2.51

### Prompt For hAb007LH3L1b (antibody, human IgG1, V domains shown) VH: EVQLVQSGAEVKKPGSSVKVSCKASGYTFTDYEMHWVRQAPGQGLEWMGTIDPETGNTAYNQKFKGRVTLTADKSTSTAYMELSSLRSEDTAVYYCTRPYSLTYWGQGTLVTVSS VL: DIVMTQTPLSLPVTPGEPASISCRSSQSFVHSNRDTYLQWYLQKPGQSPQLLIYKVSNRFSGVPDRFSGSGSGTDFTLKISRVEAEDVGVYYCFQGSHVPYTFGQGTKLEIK , what is its reported OD450 nm?
### Response 2.58
